Experiment Summary: Half life in rat plasma at 3 uM by LC/MS analysis
Type: ADME, cell-free
Property Name: half-life at 3 µM

>>> result("CC(C)(C)[C@@H]1OC(=O)[C@H]1NC(=O)OCc1ccc(-c2ccccc2)cc1")
"> 5 min"

Would you mind telling me what half-life at 3 µM value was observed for CC(C)(C)[C@@H]1OC(=O)[C@H]1NC(=O)OCCCCCc1ccccc1 ?
> 5 min

* * *

Experiment Summary: Cmax in CD1 mouse plasma at 3 mg/kg, iv
Assay type: ADME, organism-based
Set-up: dose 3 mg/kg, route intravenous
Experimental Parameters: in vivo
Property Name: Cmax (µg/mL)
Numeric answer only, unit µg/mL assumed.

Would you mind telling me what Cmax value was observed for O=C(N[C@H]1CNC1=O)OCCCCC1CCCCC1 ?
1.61

* * *

Experiment Summary: Half life in pH 5.0 buffer
Format: physicochemical
Property Name: half-life

Would you mind telling me what half-life value was observed for O=C(CCCCCc1ccccc1)N1CCOC1=O ?
> 24 h

* * *

Experimental Target: Fatty-acid amide hydrolase 1 (Rattus norvegicus, UniProt P97612)
Experiment Summary: Inhibition of Sprague-Dawley rat brain FAAH preincubated for 10 mins followed by [3H]-anandamide substrate addition after 30 mins by liquid scintillation counting method
pIC50: −log10 of the molar value.
Property Name: pIC50

a. O=C(NC1CCCCC1)OCc1cn(-c2ccccc2)nn1
b. O=C(NC1CCCCC1)OCc1ncn(Cc2ccccc2)n1
c. COc1ccc(Cn2cc(CNC(=O)OCc3cn(Cc4cccc(OC)c4)nn3)nn2)cc1
d. O=C(NC1CCCCC1)OCc1cn(Cc2ccccc2)nn1
Order the 4 listed items from lowest to highest according to pIC50. Reply format: the labels, ordered as requested.
b, a, d, c
(b: 4.29, a: 6.42, d: 7.58, c: 8.24)

* * *

Experimental Target: Fatty-acid amide hydrolase 1 (Rattus norvegicus, UniProt P97612)
Experiment Summary: Inhibition of Sprague-Dawley rat brain FAAH using [14C]anandamide as substrate by liquid scintillation counting method
Property Name: IC50 (nM)
Numeric answer only, unit nM assumed.

Would you mind telling me what IC50 value was observed for CCCCCCCCCCCCCCCCS(=O)(=O)F [HEXADECANESULFONYL FLUORIDE] ?
13

* * *

Experimental Target: Fatty-acid amide hydrolase 1 (Rattus norvegicus, UniProt P97612)
Experiment Summary: Inhibition of FAAH in Wistar rat brain membranes using [3H]-anandamide as substrate preincubated for 10 mins followed by substrate addition measured after 4 mins by liquid scintillation counting method
Format: cell membranes, Membrane
Listing of entries alongside the reported IC50.
Numeric answer only, unit nM assumed.

>>> number("O=C(NC1CCCCC1)Oc1cccc(-c2ccccc2)c1")
25.6

What IC50 appears in the records for this compound with Fatty-acid amide hydrolase 1 (Rattus norvegicus, UniProt P97612)? O=C(NC1CCCCC1)Oc1ccc(O)c(-c2ccccc2)c1
30

* * *

Experimental Target: Fatty-acid amide hydrolase 1 (Rattus norvegicus, UniProt P97612)
Sequence (P97612 whole entry): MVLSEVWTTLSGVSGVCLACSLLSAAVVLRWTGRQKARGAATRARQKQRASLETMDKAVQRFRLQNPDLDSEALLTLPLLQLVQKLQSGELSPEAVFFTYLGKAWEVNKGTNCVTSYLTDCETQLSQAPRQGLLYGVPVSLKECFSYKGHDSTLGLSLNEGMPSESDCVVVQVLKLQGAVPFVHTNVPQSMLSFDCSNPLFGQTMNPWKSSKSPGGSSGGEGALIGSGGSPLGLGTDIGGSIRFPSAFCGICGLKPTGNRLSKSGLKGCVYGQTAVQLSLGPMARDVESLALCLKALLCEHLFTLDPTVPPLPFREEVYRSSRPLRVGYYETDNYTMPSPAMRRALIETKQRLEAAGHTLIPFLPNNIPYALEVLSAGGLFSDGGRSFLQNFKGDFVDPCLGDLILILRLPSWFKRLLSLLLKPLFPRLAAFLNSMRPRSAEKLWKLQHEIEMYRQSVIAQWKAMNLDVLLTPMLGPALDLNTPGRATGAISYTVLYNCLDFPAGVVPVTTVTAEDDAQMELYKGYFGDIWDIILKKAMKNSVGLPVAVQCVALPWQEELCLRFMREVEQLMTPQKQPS
Experiment Summary: Inhibition of rat brain microsomal FAAH using N-(2-hydroxyethyl)-4-pyren-1-yl-butanamide as substrate after 60 mins by RP HPLC based fluorescence assay
pIC50: −log10 of the molar value.
Property Name: pIC50

>>> number("O=C(NCCCCCCCn1nnc(-c2ccccc2)n1)Oc1ccccc1")
7.09

a. O=C(NCCCCCCCCn1nnc(-c2ccccc2)n1)Oc1ccccc1
b. O=C(NCCCCCCn1nnc(-c2cccc(Cl)c2)n1)Oc1ccccc1
c. O=C(NCCCCCCn1nnc(-c2ccccc2)n1)Oc1cccnc1
d. O=C(NCCCCCCCn1nnc(-c2cccc(Cl)c2)n1)Oc1cccnc1
Parameters: sort_field (pIC50), sort_dir (desc). Reply format: the labels, ordered as requested.
d, c, a, b
